Assay: Fraction unbound in rat plasma at 5 uM after 4.5 hrs by HPLC-MS/MS method based rapid equilibrium dialysis
Format: ADME, cell-free
Property Measured: fraction unbound at 4.5 h, 5 µM
Returns: the value as a bare number; no unit string appended.

Lab note: `C[C@]1(c2cc(NC(=O)c3ccc(C#N)cn3)ccc2F)N=C(N)CO[C@H]1C(F)(F)F` gave fraction unbound at 4.5 h, 5 µM of 0.26

----------
Recorded measurements of Kp at 4 h, one per entry
Experiment: Ratio of total drug level in brain to plasma of in CD1 Swiss specific pathogen free mouse at 10 mg/kg, po after 4 hrs
Format: ADME, organism-based
No unit in the answer, only the number.

See these solved cases before continuing.
COc1cnc(C(=O)Nc2ccc(F)c([C@@]3(C)N=C(N)CO[C@H]3C(F)(F)F)c2)cn1 1.81
COc1cnc(C(=O)Nc2ccc(F)c([C@@]3(C)N=C(N)CO[C@H]3C(F)F)c2)cn1 0.4
COc1cnc(C(=O)Nc2ccc(F)c([C@@]3(C)N=C(N)CO[C@@H]3F)c2)cn1 0.6

So for `COc1cnc(C(=O)Nc2ccc(F)c([C@@]3(C)N=C(N)COC3=C(F)F)c2)cn1` , the logged Kp at 4 h turned out to be 0.97

----------
Assay: Toxicity in male beagle dog at 20 to 250 mg/kg/day, po qd for 1 month
Assay type: organism-based, Canis lupus familiaris
Details: in vivo
Property Measured: NOAEL at 1 month
Field: value (include unit after the number)

// sample `C[C@]1(c2cc(NC(=O)c3ccc(C#N)cn3)ccc2F)N=C(N)CO[C@H]1C(F)(F)F` , its NOAEL at 1 month was 70 mg/kg/day

----------
Assay: Fraction unbound in mouse plasma at 5 uM after 4.5 hrs by HPLC-MS/MS method based rapid equilibrium dialysis
Format: ADME, cell-free
Property Measured: fraction unbound at 4.5 h, 5 µM
// response body must contain only the number

Worked examples, 2 molecules total:
COc1cnc(C(=O)Nc2ccc(F)c([C@@]3(C)N=C(N)CO[C@H]3C(F)F)c2)cn1 0.279
COc1cnc(C(=O)Nc2ccc(F)c([C@@]3(C)N=C(N)CO[C@H]3C(F)(F)F)c2)cn1 0.155

// fraction unbound at 4.5 h, 5 µM value for `COc1cnc(C(=O)Nc2ccc(F)c([C@@]3(C)N=C(N)COC3=C(F)F)c2)cn1` : 0.146

get_value(item= `C[C@]1(c2cc(NC(=O)c3ccc(C#N)cn3)ccc2F)N=C(N)CO[C@H]1C(F)(F)F` , readout=fraction unbound at 4.5 h, 5 µM) returns 0.23

----------
Experiment: Tmax in Sprague-Dawley rat at 10 mg/kg, po administered as bolus dose by LC-MS/MS analysis
Assay type: ADME, organism-based
Settings: in vivo
Property Measured: Tmax
Remember to follow the number with its unit.

Data point: `C[C@]1(c2cc(NC(=O)c3ccc(C#N)cn3)ccc2F)N=C(N)CO[C@H]1C(F)(F)F` ; Tmax = 2 h

----------
Test: Cmax in female Sprague-Dawley rat at 75 mg/kg, po measured after 1 month repeated dosing by LC-MS/MS analysis
Type: ADME, organism-based
Parameters: dose 75 mg/kg, route oral
Conditions: in vivo
Property Measured: Cmax at 1 month (ng/mL)
Give just the numeric value; ng/mL need not be written.

Entry `C[C@]1(c2cc(NC(=O)c3ccc(C#N)cn3)ccc2F)N=C(N)CO[C@H]1C(F)(F)F` — recorded Cmax at 1 month = 2720

----------
Reported pIC50 values follow for various molecules
Molecular target: Beta-secretase 1 (Homo sapiens)
Assay: Inhibition of BACE1 (1 to 454 residues) (unknown origin) using APP derived polypeptide harboring Lys-Met/Asn-Leu mutation as substrate by FRET assay
Kindly note that pIC50 refers to -log10 of the concentration in mol/L and answer with the value alone.

Sample answers from the record:
Molecule	pIC50
C[C@]1(c2cc(NC(=O)c3cnc(OC(F)(F)C(F)(F)F)cn3)ccc2F)N=C(N)CO[C@H]1C(F)(F)F	7.52
C[C@]1(c2cc(-c3cncnc3)ccc2F)N=C(N)CO[C@H]1C(F)(F)F (racemic)	5.73
C[C@]1(c2cc(NC(=O)c3cnc(N4CCC4)cn3)ccc2F)N=C(N)CO[C@H]1C(F)(F)F	6.34

Consider the additional molecule presented here.
Kindly note the recorded pIC50 for `C[C@]1(c2cc(NC(=O)c3ncc(C#N)cc3F)ccc2F)N=C(N)CO[C@@H]1F` , which is 7.74

----------
Biological target: UniProtKB P08684
Sequence (P08684 whole entry): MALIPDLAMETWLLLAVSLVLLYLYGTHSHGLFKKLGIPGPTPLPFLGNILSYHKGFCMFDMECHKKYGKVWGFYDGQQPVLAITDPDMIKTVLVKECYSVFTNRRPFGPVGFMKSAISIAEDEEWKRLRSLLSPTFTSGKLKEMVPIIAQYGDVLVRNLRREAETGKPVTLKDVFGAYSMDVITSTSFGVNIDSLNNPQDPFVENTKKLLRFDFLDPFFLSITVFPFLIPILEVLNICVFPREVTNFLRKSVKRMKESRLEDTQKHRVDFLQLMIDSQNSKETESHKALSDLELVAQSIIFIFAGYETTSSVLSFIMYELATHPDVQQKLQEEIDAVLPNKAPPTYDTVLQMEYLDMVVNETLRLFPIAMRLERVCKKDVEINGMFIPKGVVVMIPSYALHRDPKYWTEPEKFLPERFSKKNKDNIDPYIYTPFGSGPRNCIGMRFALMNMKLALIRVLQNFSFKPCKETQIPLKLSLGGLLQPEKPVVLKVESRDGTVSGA
Assay: Reversible inhibition of recombinant human CYP3A4 by fluorescence-based assay
Type: ADME
Property Measured: IC50

Record `C[C@]1(c2cc(NC(=O)c3ccc(C#N)cn3)ccc2F)N=C(N)CO[C@H]1C(F)(F)F` . Reported IC50: > 30 µM

----------
Test: AUC (0 to infinity) in Sprague-Dawley rat at 10 mg/kg, po administered as bolus dose by LC-MS/MS analysis
Format: ADME, organism-based
Design: dose 10 mg/kg, route oral, time infinity
Conditions: in vivo
Property Measured: AUC(0-inf)
Show the value, then the unit it is measured in.

// recorded AUC(0-inf) for `C[C@]1(c2cc(NC(=O)c3ccc(C#N)cn3)ccc2F)N=C(N)CO[C@H]1C(F)(F)F` : 1220 ng·h/mL

----------
Assay: Fraction unbound in dog plasma at 5 uM after 4.5 hrs by HPLC-MS/MS method based rapid equilibrium dialysis
Format: ADME, cell-free, Canis lupus familiaris
Property Measured: fraction unbound at 4.5 h, 5 µM
Give the figure only, with no unit attached.

The recorded fraction unbound at 4.5 h, 5 µM for entry `C[C@]1(c2cc(NC(=O)c3ccc(C#N)cn3)ccc2F)N=C(N)CO[C@H]1C(F)(F)F` equals 0.26

----------
Assay: Fraction unbound in human plasma at 5 uM after 4.5 hrs by HPLC-MS/MS method based rapid equilibrium dialysis
Format: ADME, cell-free
Property Measured: fraction unbound at 4.5 h, 5 µM
Reply briefly: the number, and no unit.

In plain terms, `C[C@]1(c2cc(NC(=O)c3ccc(C#N)cn3)ccc2F)N=C(N)CO[C@H]1C(F)(F)F` has a documented fraction unbound at 4.5 h, 5 µM of 0.36

----------
Assay: Cmax in Beagle dog at 10 mg/kg, po administered as bolus dose by LC-MS/MS analysis
Type: ADME, organism-based, Canis lupus familiaris
Design: dose 10 mg/kg, route oral
Details: in vivo
Property Measured: Cmax (µM)
Answer with a number only, understood to be in µM.

Entry `C[C@]1(c2cc(NC(=O)c3ccc(C#N)cn3)ccc2F)N=C(N)CO[C@H]1C(F)(F)F` — recorded Cmax = 1.09

----------
Assay: Safety index, ratio of NOAEL for cardiotoxicity in anesthetized guinea pigs assessed as free drug level causing QTcB prolongation dosed up to 10 mg/kg, iv administered over a period of 5 min at 15 mins interval by ECG analysis to EC50 for Antialzheimer activity in po dosed Beagle dog assessed as reduction in amyloid beta (1 to 40) levels measured after 1 hr post dose by ELISA
Type: toxicity, organism-based
Conditions: guinea pig, in vivo
Property Measured: selectivity ratio
Enter a number only.

Item: `C[C@]1(c2cc(NC(=O)c3ccc(C#N)cn3)ccc2F)N=C(N)CO[C@H]1C(F)(F)F` | selectivity ratio: 71

----------
Target: Beta-secretase 1 (Homo sapiens, UniProt P56817)
Sequence (P56817 whole entry, the tested form may be a part): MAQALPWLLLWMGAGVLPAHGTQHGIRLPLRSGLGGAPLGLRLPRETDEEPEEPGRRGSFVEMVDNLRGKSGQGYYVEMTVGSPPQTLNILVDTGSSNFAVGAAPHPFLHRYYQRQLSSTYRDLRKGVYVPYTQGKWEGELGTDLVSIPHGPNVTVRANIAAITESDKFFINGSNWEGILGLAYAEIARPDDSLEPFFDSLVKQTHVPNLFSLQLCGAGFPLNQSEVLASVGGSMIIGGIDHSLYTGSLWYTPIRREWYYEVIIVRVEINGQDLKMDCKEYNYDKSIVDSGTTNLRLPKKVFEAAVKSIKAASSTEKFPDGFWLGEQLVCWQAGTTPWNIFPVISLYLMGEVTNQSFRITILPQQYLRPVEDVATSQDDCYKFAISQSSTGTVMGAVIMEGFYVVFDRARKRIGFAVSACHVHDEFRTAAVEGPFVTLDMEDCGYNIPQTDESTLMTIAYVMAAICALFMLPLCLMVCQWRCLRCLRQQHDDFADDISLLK
Assay: Inhibition of BACE1 in human SKNBE2 cells transfected with APP695 protein assessed as reduction in amyloid beta (1 to 42) levels after 18 hrs by sandwich alphalisa assay
Type: cell-based
Listed compounds paired with reported pIC50
# pIC50 is unitless: minus log10 of the molar concentration; print number only

Some compounds with recorded pIC50:
Compound	pIC50
C[C@]1(c2cc(NC(=O)c3cnc(NC4CC4)cn3)ccc2F)N=C(N)CO[C@H]1C(F)(F)F	6.22
C[C@]1(c2cc(NC(=O)c3cnc(N4CCC4)cn3)ccc2F)N=C(N)CO[C@H]1C(F)(F)F	6.94

Here's the next entry for you.
Bench note, Beta-secretase 1 (Homo sapiens, UniProt P56817): `COCCOc1cnc(C(=O)Nc2ccc(F)c([C@@]3(C)N=C(N)CO[C@H]3C(F)(F)F)c2)cn1` , pIC50 reads 7.90

----------
The reader will find reported metabolised at 0.25 h, 1 µM values listed item by item below.
Test: Drug metabolism in human liver microsomes at 1 uM after 15 mins in presence of NADPH by HPLC-MS/MS analysis
Assay type: ADME, microsome
Settings: read-out: Drug metabolism
Respond numerically; units are % and should not be typed.

Recorded results for 5 molecules are shown here.
Molecule	Result Unit	metabolised at 0.25 h, 1 µM
C[C@]1(c2cc(NC(=O)c3ccc(Cl)cn3)ccc2F)N=C(N)CO[C@H]1C(F)(F)F	%	0
C[C@]1(c2cc(NC(=O)c3ccc(C#N)cn3)ccc2F)N=C(N)CO[C@H]1C(F)(F)F	%	2
COCCOc1cnc(C(=O)Nc2ccc(F)c([C@@]3(C)N=C(N)CO[C@H]3C(F)(F)F)c2)cn1	%	56
C[C@]1(c2cc(NC(=O)c3ncc(C#N)cc3Cl)ccc2F)N=C(N)CO[C@@H]1F	%	1
COc1cnc(C(=O)Nc2ccc(F)c([C@@]3(C)N=C(N)CO[C@H]3C(F)(F)F)c2)cn1	%	2

Entry `C[C@]1(c2cc(NC(=O)c3ncc(C#N)cc3Cl)ccc2F)N=C(N)CO[C@H]1C(F)(F)F` , metabolised at 0.25 h, 1 µM reported as 38

Just so you know, measured metabolised at 0.25 h, 1 µM for `C[C@]1(c2cc(NC(=O)c3ncc(C#N)cc3F)ccc2F)N=C(N)CO[C@@H]1F` came out at 11

In plain terms, C[C@]1(c2cc(-c3cncnc3)ccc2F)N=C(N)CO[C@H]1C(F)(F)F (racemic) has a documented metabolised at 0.25 h, 1 µM of 7
